tested on: MOLP-8; test: CellTiter-Glo proliferation assay, CD48 MCL-1 and BCL-2 ADCs (Example 4); settings: Homo sapiens, MOLP-8, 120 h, read-out: MOLP-8 IC50 (nM)
Catalogue of IC50 readings, one per entry.

Previously resolved entries follow.
>>> readout_value("Cc1c(N(C(=O)c2cc(-c3cc(Cl)ccc3C(=O)N3Cc4ccccc4C[C@H]3CCCN(C)C)n(C)c2C)c2ccc(O)cc2)cc(C#N)n1C [P2]")
"> 250 nM"
>>> readout_value("COc1ccccc1-c1nccc(COc2ccccc2C[C@@H](Oc2ncnc3sc(-c4ccc(F)cc4)c(-c4ccc(OCCN5CCN(C)CC5)c(Cl)c4C)c23)C(=O)O)n1 [P1]")
"6.17 nM"
>>> readout_value("Cc1c(C(=O)N(c2ccc(O)cc2)c2cnn(C(F)F)c2)cc(-c2cc3c(cc2C(=O)N2Cc4ccccc4C[C@H]2C)CN(C(=O)Cc2ccc(OCCN4CCOCC4)cc2)CC3)n1C")
"> 250 nM"

Here is another molecule to look at.
QUERY: Identify measured IC50 corresponding to Cc1c(N(C(=O)c2cc(-c3cc4c(cc3C(=O)N3Cc5ccccc5C[C@H]3C)CN(C(=O)Cc3ccc(OCCN5CCOCC5)cc3)CC4)n(C)c2C)c2ccc(O)cc2)cc(C#N)n1C
RESULT: > 250 nM

* * *

system: KMS-27; assay: CellTiter-Glo proliferation assay, CD48 MCL-1/BCL-xL and BCL-xL ADCs (Example 6); format: cell-based; settings: KMS-27, 120 h; Table 3 CD48 ADC, 5 days, 0.01-600 nM
Catalogue of pIC50 readings, one per entry.
Units for pIC50: none; it is -log10 of a concentration expressed in mol/L.

>>> readout_value("Cc1c(Nc2nc3ccccc3s2)nnc2c1CCCN2c1nc(C(=O)O)c(CCCOc2ccc(C#CCN(C)C)cc2F)s1")
8.10

Here is another compound to look at.
QUERY: Identify measured pIC50 corresponding to COc1ccccc1-c1nccc(COc2ccccc2C[C@@H](Oc2ncnc3sc(-c4ccc(F)cc4)c(-c4ccc(OCCN5CCN(C)CC5)c(Cl)c4C)c23)C(=O)O)n1 [P1]
RESULT: 8.28

* * *

tested on: KMS-21-BM; experiment: CellTiter-Glo proliferation assay, CD48 MCL-1 and BCL-2 ADCs (Example 4); settings: 120 h, read-out: KMS-21-BM IC50 (nM)
ENDPOINT LABEL: IC50

>>> readout_value("COc1ccccc1-c1nccc(COc2ccccc2C[C@@H](Oc2ncnc3sc(-c4ccc(F)cc4)c(-c4ccc(OCCN5CCN(C)CC5)c(Cl)c4C)c23)C(=O)O)n1 [P1]")
"1.66 nM"

QUERY: Identify measured IC50 corresponding to Cc1c(C(=O)N(c2ccc(O)cc2)c2cnn(C(F)F)c2)cc(-c2cc3c(cc2C(=O)N2Cc4ccccc4C[C@H]2C)CN(C(=O)Cc2ccc(OCCN4CCOCC4)cc2)CC3)n1C
RESULT: > 100 nM

QUERY: Identify measured IC50 corresponding to Cc1c(N(C(=O)c2cc(-c3cc(Cl)ccc3C(=O)N3Cc4ccccc4C[C@H]3CCCN(C)C)n(C)c2C)c2ccc(O)cc2)cc(C#N)n1C [P2]
RESULT: > 100 nM

QUERY: Identify measured IC50 corresponding to Cc1c(N(C(=O)c2cc(-c3cc4c(cc3C(=O)N3Cc5ccccc5C[C@H]3C)CN(C(=O)Cc3ccc(OCCN5CCOCC5)cc3)CC4)n(C)c2C)c2ccc(O)cc2)cc(C#N)n1C
RESULT: > 100 nM
